- protocol_description: blockers of mitochondrial fusion, WT vs mutant – cell-based, chemical genetic, wild-type and mutant, confirmation (AID 1361)
- stated_conditions: Cell-based mitochondrial fusion phenotype, imaging, WT cells
Active and inactive are the calls of the source. How the calls were made is not given here.
Hello, when you answer, please use one of the following outcomes: active, inactive

As a guide, the following entries are already answered.
What call does the record list for Cc1ccc(-c2nc3cc(Br)cnc3nc2-c2ccc(C)cc2)cc1 ?
active

What do you get for O=S(=O)(NCC(Nc1ccc(Cl)cc1)c1ccccc1)c1ccccc1 (configuration not stated) ?
active

What do you get for COc1ccc(NC(=O)N2c3ccccc3CC2C)cc1OC (configuration not stated) ?
inactive

What do you get for CNC(=S)NCCC(c1ccccc1)c1ccccc1 ?
inactive

What do you get for O=C(OCc1nnc(-c2ccccc2)o1)C12CC3CC(CC(Br)(C3)C1)C2 ?
active

What do you get for CCc1cccc(C)c1NC(=S)NCCc1c(C)[nH]c2ccc(C)cc12 ?
inactive

Next:
What call does the record list for Cc1nn(-c2ccccc2)c(C)c1NC(=O)c1ccc(S(=O)(=O)N2CCCC2)cc1 ?
inactive

What do you get for CC(=O)N1N=C(c2ccc(C)cc2)OC1c1ccc(Br)cc1 (configuration not stated) ?
active

What do you get for CC1(C)CC(=O)C2=C(C1)N(c1ccc(F)cc1)C(=O)C2(O)C(F)(F)F (configuration not stated) ?
inactive

What do you get for CC1Cc2ccccc2N1C(=O)Cn1c(=O)cc(O)c2ccccc21 (configuration not stated) ?
inactive

What do you get for Cc1ccc(N=Cc2c(O)n(-c3ccc4c(c3)OCO4)c(=O)c3ccccc23)cc1 ?
inactive

What do you get for O=c1cc(-c2ccc(C3CCCCC3)cc2)[nH][nH]1 ?
inactive

What do you get for CCc1nnc(NC(=O)C2Cc3ccccc3CN2S(=O)(=O)c2ccc(C)cc2)s1 (configuration not stated) ?
inactive

What do you get for CCC(C)(C)c1ccc(OCC(=O)N(C)C)c(C(C)(C)CC)c1 ?
active

What do you get for CC(C)(C)n1nnnc1C(c1cccs1)N1CCCC2(CCCCC2)C1 (configuration not stated) ?
active

What do you get for CC(=O)c1ccc(-n2nnnc2SCC(=O)Nc2cccc(NC(=O)c3ccco3)c2)cc1 ?
inactive

* * *

- protocol_description: blockers of mitochondrial fusion, WT vs mutant – cell-based, chemical genetic, wild-type and mutant, confirmation (AID 1361)
- stated_conditions: Cell-based mitochondrial fusion phenotype, imaging, WT cells
Active and inactive are the calls of the source. No rule for the calls is given here.
Hello, when you answer, please use one of the following outcomes: 1 (active), 0 (inactive)

As a guide, the following entries are already answered.
What call does the record list for Cc1ccc(Nc2nc(N)nc(CSc3nc4ccccc4s3)n2)cc1 ?
1

What do you get for O=C(CSCC(=O)OCn1nnc2ccccc2c1=O)Nc1ccc(Cl)cc1 ?
0

Now for a further compound.
What call does the record list for C(=N\Nc1nc(Nc2ccccc2)nc(Nc2ccccc2)n1)/c1cccnc1 ?
1

* * *

- protocol_description: blockers of mitochondrial fusion, WT vs mutant – cell-based, chemical genetic, wild-type and mutant, confirmation (AID 1361)
- stated_conditions: Cell-based mitochondrial fusion phenotype, imaging, WT cells
The source made the active and inactive calls. No rule for the calls is given here.
Hello, when you answer, please use one of the following outcomes: true (1) = active, false (0) = inactive

As a guide, the following entries are already answered.
What call does the record list for O=C(c1ccc(-c2nnc(-c3ccccc3)o2)cc1)N1CCCCCC1 ?
false (0)

What do you get for COC(=O)c1cn(N(C)c2ncc(C(F)(F)F)cc2Cl)c(=O)c2ccccc12 ?
false (0)

What do you get for N#CC(c1ccc(Cl)cc1)(c1ncc(C(F)(F)F)cc1Cl)N1CCOCC1 (stereo not given) ?
false (0)

What do you get for Cc1cc(N/N=C/c2ccc(O)c(C)c2O)nc(-c2ccccc2O)n1 ?
false (0)

What do you get for CCOc1ccc(NS(=O)(=O)c2ccc(NC(=S)NC(=O)CC(C)C)cc2)cc1 ?
true (1)

What do you get for COc1ccc(-c2nc(-c3ccccc3)[nH]c(=O)c2C#N)cc1 ?
false (0)

Next:
What call does the record list for CCC(=O)Nc1ccc(N2CCN(CC)CC2)c(Cl)c1 ?
false (0)

What do you get for Cc1ccc(NC(=O)C2(c3ccccc3)CC2(Cl)Cl)cc1C (stereo not given) ?
false (0)

What do you get for CCCCNC(=O)C1CCN(S(=O)(=O)c2cnc[nH]2)CC1 ?
false (0)

What do you get for COc1cccc(-c2nc(OC(C)C)c3ccccc3n2)c1 ?
false (0)

// provenance: PubChem BioAssay AID1361
